assay: Mean plasma residence time in po dosed ICR mouse; format: ADME, organism-based
Hi there, I'd appreciate the recorded MRT for every entry that follows.
Could you write the number and then its unit?

Examples from the recorded data:
>>> reading("O=S1(=O)CCCN1CC(O)Cn1c2ccccc2c2ccccc21 (centres undefined)")
"7.63 h"
>>> reading("CS(=O)(=O)NCC(O)Cn1c2ccccc2c2ccccc21 (centres undefined)")
"1.92 h"
>>> reading("O=S1(=O)NCCCN1CC(O)Cn1c2ccccc2c2ccccc21 (centres undefined)")
"5.12 h"

Here is the next item to consider.
I would be grateful if you could share the reported MRT for CN(CC(O)Cn1c2ccccc2c2ccccc21)S(C)(=O)=O (centres undefined) .
3.01 h
